Please respond with reported inhibition for every item in the list.
# Study system: Runt-related transcription factor 1 (Homo sapiens) + Core-binding factor subunit beta (Homo sapiens) (UniProt Q01196+Q13951)
# Sequence (Q01196 whole entry, looked up, the tested form may be a part): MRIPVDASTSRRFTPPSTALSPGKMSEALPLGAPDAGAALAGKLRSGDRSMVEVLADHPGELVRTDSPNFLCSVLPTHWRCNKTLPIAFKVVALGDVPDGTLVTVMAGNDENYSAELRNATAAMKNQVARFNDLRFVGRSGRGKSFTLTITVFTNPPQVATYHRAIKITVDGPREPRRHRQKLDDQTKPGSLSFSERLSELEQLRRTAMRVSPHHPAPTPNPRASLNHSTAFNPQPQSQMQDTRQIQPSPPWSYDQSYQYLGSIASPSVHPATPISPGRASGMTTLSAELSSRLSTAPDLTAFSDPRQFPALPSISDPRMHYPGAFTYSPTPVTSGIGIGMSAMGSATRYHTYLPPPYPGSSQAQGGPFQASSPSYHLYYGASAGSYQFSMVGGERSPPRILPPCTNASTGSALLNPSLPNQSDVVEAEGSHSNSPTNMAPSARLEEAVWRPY
# Sequence (Q13951 whole entry, looked up, the tested form may be a part): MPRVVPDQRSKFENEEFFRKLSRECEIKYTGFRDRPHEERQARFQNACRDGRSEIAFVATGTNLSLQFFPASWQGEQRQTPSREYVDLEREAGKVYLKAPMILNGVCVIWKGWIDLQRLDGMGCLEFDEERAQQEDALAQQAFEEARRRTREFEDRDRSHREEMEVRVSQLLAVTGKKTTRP
# Procedure text: disruptors of Runt domain/CBFb-SMMHC interaction – biochemical, FRET, Cerulean-Runt, Venus-CBFb-SMMHC, uHTS, primary screen (AID 1434);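 also: 0% = DMSO wells and 100% = wells with excess untagged CBFb-SMMHC; inhibitors lower the FRET ratio by blocking Runt binding to CBFb-SMMHC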
# Stated conditions: Cerulean-Runt/Venus-CBFb-SMMHC FRET ratio 530/480, 1 h; at 20 µM; active compounds read high
The whole screen tested about 220,000 compounds, of which about 1,600 (0.73%) were called active. The sample as a whole holds a higher share of actives than the screen did.
API: value field is a number in %; no unit string.

// "COC(=O)C1=CN(C)C=C(C(=O)OC)C1c1ccc(Cl)cc1Cl" : inhibition value = 60.9

// "CCCn1c(=O)c2c(C(F)(F)F)cc(-c3cccs3)nc2n(CCC)c1=O" : inhibition value = 1.9

// "CCC(C)(C)n1nnnc1CN1CCN(c2nc3ccc(C)cc3cc2C#N)CC1" : inhibition value = 54

// "Cn1ncc(Br)c1C(=O)NCc1cccs1" : inhibition value = -0.4

// "Cc1ccc(C)c(Cn2nnc3c(=O)[nH]c(C(=O)Nc4ccc(F)cc4)nc32)c1" : inhibition value = 1.2

// O=[N+]([O-])c1ccc2c(c1)C(N1CCOCC1)/C(=C/C1(O)CCCCC1)O2 (stereo unspecified) : inhibition value = -4.2

----------
# Study system: Runt-related transcription factor 1 (Homo sapiens) + Core-binding factor subunit beta (Homo sapiens) (UniProt Q01196+Q13951)
# Procedure text: disruptors of Runt domain/CBFb-SMMHC interaction – biochemical, FRET, Cerulean-Runt, Venus-CBFb-SMMHC, uHTS, primary screen (AID 1434);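 also: 0% = DMSO wells and 100% = wells with excess untagged CBFb-SMMHC; inhibitors lower the FRET ratio by blocking Runt binding to CBFb-SMMHC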
# Stated conditions: Cerulean-Runt/Venus-CBFb-SMMHC FRET ratio 530/480, 1 h; at 20 µM
Hit rate of the full screen: of about 220,000 compounds, about 1,600 (0.73%) were called active.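 The calls were made as follows: active = mean inhibition across duplicate retests at 20 µM reaching about 50% (limit read from the data); inactive = the rest, inconclusive results apart.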 The entries come from a sample that favours actives as a whole.
Output constraint: value belongs to Y (active), N (inactive)

In: Hey, what did the test say about COc1ccc(C2/C=C\CN(CC(C)C)CC(=O)N2Cc2ccc(F)cc2)cc1 (centres undefined) ?
Out: N

In: Hey, what did the test say about "CCOC(=O)C1CCN(C(=O)C2(NC(=O)Nc3cccc(F)c3)CCCCC2)CC1" ?
Out: N

In: Hey, what did the test say about COCc1[nH]nc2c1C(C1C=CCCC1)C(C#N)=C(N)O2 (centres undefined) ?
Out: N

In: Hey, what did the test say about "Cc1cc(C#N)c(SCC(N)=O)nc1-c1ccc(F)cc1" ?
Out: N

In: Hey, what did the test say about N#CC1=C(N)Oc2c(sc3ccccc23)C1c1ccco1 (centres undefined) ?
Out: N

In: Hey, what did the test say about "Cc1cc(C)c(C#N)c(N2CCC(C(N)=O)CC2)n1" ?
Out: N

In: Hey, what did the test say about O=C(C1CCCO1)N1CCN(C(=S)NC2CC2)CC1 (centres undefined) ?
Out: N

In: Hey, what did the test say about Cc1cc(C)c2c3c(sc2n1)C(c1ccccc1)C(C#N)=C(N)O3 (centres undefined) ?
Out: Y

In: Hey, what did the test say about N#CC1=C(N)OC2=C(C(=O)CCC2)C1C1CC=CCC1 (centres undefined) ?
Out: N

Cited source for all entries: PubChem BioAssay AID1434
